Biological target: Aldehyde dehydrogenase 1A1 (Homo sapiens) (UniProt P00352)
Sequence (P00352 whole entry, looked up): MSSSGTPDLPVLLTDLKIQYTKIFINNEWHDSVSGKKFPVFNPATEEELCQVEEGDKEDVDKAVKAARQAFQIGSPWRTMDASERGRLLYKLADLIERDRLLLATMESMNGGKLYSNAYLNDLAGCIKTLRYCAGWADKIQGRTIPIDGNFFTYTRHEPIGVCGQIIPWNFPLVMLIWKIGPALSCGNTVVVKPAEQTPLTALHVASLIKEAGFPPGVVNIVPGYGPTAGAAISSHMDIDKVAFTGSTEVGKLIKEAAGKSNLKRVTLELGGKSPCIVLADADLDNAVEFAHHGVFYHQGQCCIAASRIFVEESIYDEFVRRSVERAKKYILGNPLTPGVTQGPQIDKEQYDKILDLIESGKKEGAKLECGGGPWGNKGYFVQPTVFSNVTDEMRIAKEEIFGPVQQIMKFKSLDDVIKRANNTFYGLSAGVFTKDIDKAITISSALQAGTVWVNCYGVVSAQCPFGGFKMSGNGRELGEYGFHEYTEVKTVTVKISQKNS
Test: qHTS Assay for Inhibitors of Aldehyde Dehydrogenase 1 (ALDH1A1)
Details: Purified ALDH1A1, NADH fluorescence, propionaldehyde substrate; series mostly up to 75.3 µM
The whole screen tested about 220,000 compounds, of which about 16,000 (7.3%) were called active. Roughly 25% stayed inconclusive and do not appear here. Calls follow the shape of the dose curve; as a rule, active = well fitted inhibition curve with a large enough effect (not every such curve was filed as active); inconclusive = small, poorly fitted or top-dose-only effect, or another doubt; inactive = no such curve, though single readings can be large or run the other way. What follows is part of a selection rich in actives, with near analogues and random picks from the rest.
Can you answer with just one of these options? active, inactive

Q) What call does the record list for Fc1ccc(CNc2nc3ccccc3n3nnnc23)cc1 ?
A) inactive

====

Target: Aldehyde dehydrogenase 1A1 (Homo sapiens) (UniProt P00352)
Test: qHTS Assay for Inhibitors of Aldehyde Dehydrogenase 1 (ALDH1A1)
Conditions: Purified ALDH1A1, NADH fluorescence, propionaldehyde substrate; series mostly up to 75.3 µM
The campaign covered roughly 220,000 compounds. About 16,000 (7.3%) were called active. Inconclusive results (about 25%) are left out. Calls come from the whole dose curve; as a rule, active = well fitted inhibition curve with a large enough effect (not every such curve was filed as active); inconclusive = small, poorly fitted or top-dose-only effect, or another doubt; inactive = no such curve, though single readings can be large or run the other way. This excerpt belongs to a sample that is enriched for actives.
Can you answer with just one of these options? Y for active, N for inactive

Solved cases below.
COMPOUND	MEASURED ON	LABEL CLASS
CC(C)n1c(=S)[nH]c2cc(C(F)(F)F)ccc21	Aldehyde dehydrogenase 1A1 (Homo sapiens) (UniProt P00352)	Y
OC(CN=c1sc2ccccc2n1CC(O)COc1ccccc1)COc1ccccc1 (centres undefined)	Aldehyde dehydrogenase 1A1 (Homo sapiens) (UniProt P00352)	Y
Cc1nn(C)cc1/C=C1\CCC/C(=C\c2cn(C)nc2C)C1=O	Aldehyde dehydrogenase 1A1 (Homo sapiens) (UniProt P00352)	Y

Q) What call does the record list for C=CCc1cccc2cc(C(=O)Nc3ccc(NC(C)=O)cc3)c(=O)oc12 ?
A) N

Q) What call does the record list for Cc1ccc(NC(=O)N2CCSc3ccccc32)cc1 ?
A) N

Q) What call does the record list for COc1ccc(C(=O)Nc2cccnc2)cc1C(=O)Nc1cccnc1 ?
A) N

Q) What call does the record list for COc1ccc(CCNC(=O)COC(=O)Cc2cc(OC)c(OC)c(OC)c2)cc1 ?
A) N
